These data points were gathered from patent US10907134B2.

method: Substrate specificities of KAZ mutants (ZZ-fused, crude enzyme), h-CTZ
Type: biochemical
particulars: 1 μg substrate, maximum intensity of luminescence
Method: The coelenterazine analogues used for substrate specificity studies were synthesized by the methods described in publications. Specifically, bis-coelenterazine was synthesized by the method described in Nakamura et al. (1997) Tetrahedron Lett. 38: 6405-6406; furimazine by the method described in Hall et al. (2012) ACS Chem. Biol. […]; and, 6h-coelenterazine, f-coelenterazine and 6h-f-coelenterazine by the methods described in Inouye et al (2013) Biochem. Biophys. Res. Commun. 437: 23-28. […]
parameter: Relative Luminescence Activity h-CTZ Imax
// no unit string in output, number only

{"columns": ["molecule", "value"],
 "data": [
  ["KAZ-A54I-Y138I: KAZ mutant with two amino acid substitutions A54I and Y138I, SEQ ID NO: 14 (protein) FTLADFVGDWQQTAGYNQDQVLEQGGLSSLFQALGVSVTPIQKVVLSGENGLKIDIHVIIPYEGLSGFQMGLIEMIFKVVYPVDDHHFKIILHYGTLVIDGVTPNMIDYFGRPYPGIAVFDGKQITVTGTLWNGNKIIDERLINPDGSLLFRVTINGVTGWRLCENILA", 24.2]
]}

[ask] I am curious: what Relative Luminescence Activity h-CTZ Imax value has been reported for KAZ-V44I-Y138I: KAZ mutant with two amino acid substitutions V44I and Y138I, SEQ ID NO: 12 (protein) FTLADFVGDWQQTAGYNQDQVLEQGGLSSLFQALGVSVTPIQKIVLSGENGLKADIHVIIPYEGLSGFQMGLIEMIFKVVYPVDDHHFKIILHYGTLVIDGVTPNMIDYFGRPYPGIAVFDGKQITVTGTLWNGNKIIDERLINPDGSLLFRVTINGVTGWRLCENILA ?
[reply] 19.1
